- tested-system: PDE1 Y228A (Homo sapiens, UniProt Q14123, Y227A)
- Sequence (Q14123 147-531 Y227A): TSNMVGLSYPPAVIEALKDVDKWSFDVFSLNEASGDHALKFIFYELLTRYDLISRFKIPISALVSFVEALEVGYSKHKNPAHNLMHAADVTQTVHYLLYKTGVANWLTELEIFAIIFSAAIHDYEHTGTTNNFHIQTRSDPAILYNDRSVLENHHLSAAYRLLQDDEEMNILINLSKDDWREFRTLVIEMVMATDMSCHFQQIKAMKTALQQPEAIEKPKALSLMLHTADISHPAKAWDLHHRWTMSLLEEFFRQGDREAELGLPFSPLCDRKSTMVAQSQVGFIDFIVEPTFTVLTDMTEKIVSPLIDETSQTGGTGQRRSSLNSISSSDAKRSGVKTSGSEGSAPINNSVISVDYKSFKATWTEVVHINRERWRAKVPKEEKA
- experimental-protocol: Inhibition of PDE1 mutant by 10a
- Assay type: biochemical
quantity-kind: pIC50
Scale note: pIC50 = -log10(concentration in M).

Suppose we examine the compound Cc1cc2c(c(=O)[nH]1)C(=O)O/C2=C\c1cc(F)ccc1OC(C)C [compound 10a] ; what pIC50 value has been reported? 7.37

----------
- experimental-protocol: Metabolic stability in rat liver microsomes
- Format: in vitro ADME
quantity-kind: half-life (min)
State the answer as a number, implicitly in min.

Suppose we examine the molecule Cc1cc2c(c(=O)[nH]1)C(=O)O/C2=C\c1cc(F)ccc1OCCN1CCOCC1 [compound 11a] ; what half-life value has been reported? 8

Suppose we examine the molecule O=C1O/C(=C\c2cc(F)ccc2OCCN2CCOCC2)c2cc(Cc3cccc(F)c3)[nH]c(=O)c21 [compound 11b] ; what half-life value has been reported? 29.8

Suppose we examine the molecule O=C1O/C(=C\c2cc(F)ccc2OCCN2CC[C@@H](F)C2)c2cc(Cc3cccc(F)c3)[nH]c(=O)c21 [11c] ; what half-life value has been reported? 13.5

----------
- tested-system: PDE1 F392A (Homo sapiens, UniProt Q14123, F398A)
- Sequence (Q14123 147-531 F398A): as the sequence (Q14123 147-531 Y227A) above, with A81Y, F252A counted along it
- experimental-protocol: Inhibition of PDE1 mutant by 10a
quantity-kind: IC50 (nM)
State the answer as a number, implicitly in nM.

Param readout= IC50; system= PDE1 F392A (Homo sapiens, UniProt Q14123, F398A); entry= Cc1cc2c(c(=O)[nH]1)C(=O)O/C2=C\c1cc(F)ccc1OC(C)C [compound 10a] ; returns value. 231

Origin of measurements: paper PMC11725145
